# SYSTEM: Recombinant human GSK3β (Homo sapiens, UniProt P49841)
# Construct: His-tag; made in house; host or cells: Sf9 insect cells / baculovirus
# Sequence (P49841 whole entry): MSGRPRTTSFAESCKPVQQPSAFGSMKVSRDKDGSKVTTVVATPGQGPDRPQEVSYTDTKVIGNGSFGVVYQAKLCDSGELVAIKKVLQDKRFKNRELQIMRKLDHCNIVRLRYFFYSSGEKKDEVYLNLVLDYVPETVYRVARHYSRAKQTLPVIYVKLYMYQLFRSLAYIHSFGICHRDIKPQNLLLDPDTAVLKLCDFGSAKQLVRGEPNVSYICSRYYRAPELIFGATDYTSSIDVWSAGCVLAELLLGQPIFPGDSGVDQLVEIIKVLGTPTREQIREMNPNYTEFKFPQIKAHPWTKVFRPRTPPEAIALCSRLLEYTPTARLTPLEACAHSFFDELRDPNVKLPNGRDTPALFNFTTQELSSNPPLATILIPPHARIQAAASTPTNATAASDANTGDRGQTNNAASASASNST
# TEST_PROTOCOL: GSK-3β (Glycogen Synthase Kinase) cell free enzyme assay
# Type: biochemical
# COND: cell free enzyme assay; Examples 265-291
# Description: Assay Protocol for GSK-3β (Glycogen Synthase Kinase) in a Cell Free Enzyme Assay Recombinant human GSK3β was expressed in SF9/Baculo virus cells. His-tag protein was purified by affinity chromatography to a Ni-NTA Superflow column. […] Radioactivity associated with the beads was quantified by scintillation counting of CPM in a Trilux counter (PerkinElmer). […]
MEASURED_PROPERTY: IC50 (µM)
// units = µM; emit number, no label

query: Report IC50 for Cc1nc(N2C[C@@H]3[C@H](C2)[C@H]3N(C)c2nc(-c3ccncc3F)cc(=O)n2C)n2nc(-c3ccccc3Cl)c(I)c2n1 tested on Recombinant human GSK3β (Homo sapiens, UniProt P49841).
result: 5.67

query: Report IC50 for CN(c1nc(-c2ccncc2F)cc(=O)n1C)[C@H]1[C@@H]2CN(c3nnnn3-c3ccccc3F)C[C@@H]21 tested on Recombinant human GSK3β (Homo sapiens, UniProt P49841).
result: 0.00112

query: Report IC50 for CN(c1nc(-c2ccncc2F)cc(=O)n1C)[C@H]1[C@@H]2CN(c3nc4ccccc4s3)C[C@@H]21 tested on Recombinant human GSK3β (Homo sapiens, UniProt P49841).
result: 0.0557

query: Report IC50 for CC(C)n1nnnc1N1C[C@@H]2[C@H](C1)[C@H]2N(C)c1nc(-c2ccncc2F)cc(=O)n1C tested on Recombinant human GSK3β (Homo sapiens, UniProt P49841).
result: 0.00325

query: Report IC50 for COc1ccc2oc(N3C[C@@H]4[C@H](C3)[C@H]4N(C)c3nc(-c4ccncc4F)cc(=O)n3C)nc2c1 tested on Recombinant human GSK3β (Homo sapiens, UniProt P49841).
result: 0.0142

query: Report IC50 for CN(c1nc(-c2ccncc2F)cc(=O)n1C)[C@H]1[C@@H]2CN(c3nc4ccccc4o3)C[C@@H]21 tested on Recombinant human GSK3β (Homo sapiens, UniProt P49841).
result: 0.0246

query: Report IC50 for CN(c1nc(-c2ccncc2F)cc(=O)n1C)[C@H]1[C@@H]2CN(c3nnnn3C3CCCC3)C[C@@H]21 tested on Recombinant human GSK3β (Homo sapiens, UniProt P49841).
result: 0.0125

query: Report IC50 for COCC(C)n1nnnc1N1C[C@@H]2[C@H](C1)[C@H]2N(C)c1nc(-c2ccncc2F)cc(=O)n1C (stereo partly shown) tested on Recombinant human GSK3β (Homo sapiens, UniProt P49841).
result: 0.00306

query: Report IC50 for Cc1nnc2c(N3C[C@@H]4[C@H](C3)[C@H]4N(C)c3nc(-c4ccncc4F)cc(=O)n3C)nc(-c3ccccc3)cn12 tested on Recombinant human GSK3β (Homo sapiens, UniProt P49841).
result: 0.234

query: Report IC50 for CN(c1nc(-c2ccncc2F)cc(=O)n1C)[C@H]1[C@@H]2CN(c3nc4cc(C(F)(F)F)ccc4[nH]3)C[C@@H]21 tested on Recombinant human GSK3β (Homo sapiens, UniProt P49841).
result: 0.0363

query: Report IC50 for CN(c1nc(-c2ccncc2F)cc(=O)n1C)[C@H]1[C@@H]2CN(c3nc4cc(F)ccc4n3C)C[C@@H]21 tested on Recombinant human GSK3β (Homo sapiens, UniProt P49841).
result: 0.0167

query: Report IC50 for Cc1nn(C2CCCC2)c2nc(N3C[C@@H]4[C@H](C3)[C@H]4N(C)c3nc(-c4ccncc4F)cc(=O)n3C)[nH]c(=O)c12 tested on Recombinant human GSK3β (Homo sapiens, UniProt P49841).
result: 0.0517

query: Report IC50 for CN(c1nc(-c2ccncc2F)cc(=O)n1C)[C@H]1[C@@H]2CN(c3nnnn3-c3cccc(OC(F)(F)F)c3)C[C@@H]21 tested on Recombinant human GSK3β (Homo sapiens, UniProt P49841).
result: 0.00599
